- Test system: artificial bulbus pili site (human dermal papilla cells + outer root sheath cells)
- assay info: Growth-stimulative activity test on artificial human bulbus pili cell (Alamar Blue relative respiration level)
- Assay type: cell-based
- test conditions: final concentration 10^−12 M or 10^−14 M; summary of Table 2
measurement kind: cell growth-stimulative effect on artificial bulbus pili site, in words

CCCCCN(C)CCCC(C#N)(c1ccc(OC)c(OC)c1)C(C)C (stereo not shown) ... strong effects
COc1ccc(C(C#N)(CCCn2cccc2)C(C)C)cc1OC (stereo not shown) ... strong effects
COc1ccc(C(C#N)(CCCN(C)CC(C)C)C(C)C)cc1OC (stereo not shown) ... strong effects
